# System: MS2 coat protein
# test-description: apparent KD of MS2 coat protein; designed switch direction (-1 OFF switch, 1 ON switch): 1; higher = weaker reporter binding
# measurement-context: input ligand: microRNA oligo, concentration not stated
Class yes (1): apparent KD of MS2 coat protein at least 60 nM. Class no (0): apparent KD of MS2 coat protein below 60 nM.

Worked examples, 4 sequences total:
biosequence="AUUAUUUAUGCAGGAUAUGAUUAACAUGAGGAUCACCCAUGUGGUGUUGUGAGUAAGGAGAGUGAUCAGAAGGGCAUUAUUUUU [JMF's solution 45] (Eterna round: R96, puzzle: Same State NG 2)" class_label="yes (1)"
biosequence="GUGGAGAAUUAAGGAUAUUGAAUACAUAUGUUUAACAUGAGGAUCACCCAUGUGGGUUGCGGUAUCGAGAAGGUAAAUUACUGG [salish99_SSNG2_r04_033] (Eterna round: R96, puzzle: Same State NG 2)" class_label="yes (1)"
biosequence="GGAUGAUAGACAGGAUAUUGAUUGUAAUUAGGACAAGAAGGGUCAAUGAUUUAAACGACCAGUUACAUGAGGAUCACCCAUGUU [JR_SSNG1_Sub026] (Eterna round: R96, puzzle: Same State NG 1)" class_label="no (0)"
biosequence="GGUCCAUCAUGAGGAUAUGGCACCUUAUUGGUGCCAGAAGGCAUGUAAAUUAUAAUAAAACAUGAGGAUCACCCAUGUUGGACC [Eli NG1ss - 97] (Eterna round: R96, puzzle: Same State NG 1)" class_label="no (0)"

Request: Answer whether apparent KD of MS2 coat protein of UGUUGUAUUACAGGAUAUCUAUUGGUUUUAUUUAGAGAAGGGUAUUCACAUGAGGAUCACCCAUGUAUAUACGAGGAAGUUGUG [JMF's solution 72] (Eterna round: R96, puzzle: Same State NG 1) is greater than or equal to 60 nM.
Response: no (0)

====

# Test system: MS2 coat protein
# test-description: apparent KD of MS2 coat protein, switch OFF state (with FMN for OFF switches, without FMN for ON switches); designed switch direction (-1 OFF switch, 1 ON switch): 1; higher = weaker reporter binding
# measurement-context: FMN input: 0 or 200 uM; Eterna round: R93 (includes R88 designs)
Please note: label 1 applies when apparent KD of MS2 coat protein is 100 nM or greater, and label 0 applies otherwise.

Study these solved cases before continuing.
biosequence="UGAGGACAUGAGGAUCACCCAUGUAGGCCACAAUCAGGAUAUGCAUUAAGGUACCUAAGAGUAGAAGGGAUUCGAG [SameState_Neo]" class_label="label 0"
biosequence="AAAAGACAUGAGGAUCACCCAUGUGAAAACGUAGGAGGAUAUGUCUGGAAAACAGACUGGACAGAAGGCCUGUGUC [SS1 - 33]" class_label="label 0"
biosequence="GAAAAACAUGAGGAUCACCCAUGUAAUACAACAUCAGGAUAUUGAUUUUACUAUGUAUUGCAAGAAGGGAUGAAAG [Mat - Same State 1 - Hyphema mod - D100]" class_label="label 0"
biosequence="AGAAAUAAAAGAGAGGAUAUCCAAAAGAAAACAUGAGGAUCACCCAUGUAAAAGAAAAUAAAAUGGGAGAAGGCUCGAAAUAAGA [Topaz 21]" class_label="label 1"
biosequence="AAUAACAAAAGAAAGGAUAUAUAAACAGGAACAUGAGGAUCACCCAUGUGCCGCCAAGGCGGAUAAUAGAAGGUUCACAUGCAUA [Default title]" class_label="label 0"

Consider the record given below.
Request: Quick check, apparent KD of MS2 coat protein >= 100 nM? GAAAUACAUGAGGAUCACCCAUGUUAGGUGAUUCAAGGAUAUCAAGGUAAAUAAAAACCUUGAGAAGGUGAAUAAA [JR_SS001_Sub205]
Response: label 1

====

# Test system: MS2 coat protein
# test-description: apparent KD of MS2 coat protein; designed switch direction (-1 OFF switch, 1 ON switch): -1; higher = weaker reporter binding
# measurement-context: input ligand: microRNA oligo, concentration not stated
Where apparent KD of MS2 coat protein equals or exceeds 50 nM, the correct label is True; where it does not, the label is False.

biosequence="AUUAUAUAGAGAGGAUAUAGAAUAUUAUUUUAACAUGAGGAUCACCCAUGUAACCUUAUGUGUAGCUAGAAGGCUCAUUUAUUA [Title] (Eterna round: R96, puzzle: Exclusion NG 2)" class_label=False
biosequence="ACAUGAGGAUCACCCAUGUCCGGCUGGUCCGUCUCGGCUGUCGAGGAUAUGGCUCGGUGUCCGCGCUAGAAGGUGGGAGCCGGA [Aenatbe mod 75] (Eterna round: R96, puzzle: Exclusion NG 3)" class_label=False
biosequence="GUCAGCUCGUGAGGAUAUACAUCACUGCUUCGGCAGUGUAUUAAGAUCACAUGAGGAUCACCCAUGUAGAAGGUACGAGCUGAC [ENG2/2-C1] (Eterna round: R96, puzzle: Exclusion NG 2)" class_label=False
biosequence="CUCGUGCAGCUUUGCUGUACGAGUACAUGAGGAUCACCCAUGUAGGAUAUGGUACGCUUUGCGUGCCAGAAGGACGUGUGUUUG [JL EXNG3 1.40] (Eterna round: R96, puzzle: Exclusion NG 3)" class_label=False
biosequence="AUUGAUAGCACAGGAUAUUGAGAUUUGAAUUGACAAGAAGGGUGUACAUGAGGAUCACCCAUGUAAUGGUUGAGUGGUUGAUUA [JR_ExcNG1_Sub003] (Eterna round: R96, puzzle: Exclusion NG 1)" class_label=True

Request: // inclusive: apparent KD of MS2 coat protein at least 50 nM? input: GCGCCAUCGUGAGAUGGCGUAAUUACAUGAGGAUCACCCAUGUAGGAUAUCGAUUGCUUUGCAGUCGAGAAGGGCAUGUAUAAU [JL ENG3 3.94] (Eterna round: R96, puzzle: Exclusion NG 3)
Response: False

Request: Is reported apparent KD of MS2 coat protein greater than or equal to 50 nM here: AAGGCGCGCGUAGGAUAUCACCGCAAAAGUCGAUGAGAAGGGCGAGUGCAUGGUGUCCUAACUUGAGGAUCACCCAAGUAAAGA [Mutated MS2 EX1.22] (Eterna round: R96, puzzle: Exclusion NG 1)
Response: False

Request: In plain terms: is recorded apparent KD of MS2 coat protein at least 50 nM for UACAUGAGGAUCACCCAUGUUUUGUCGUGUAUGGUAUUUAUCUAGGAUAUCAUAUUAUUUAGUUAUGAGAAGGAGAAUAUUAAU [JMF's solution 80] (Eterna round: R96, puzzle: Exclusion NG 3) ?
Response: False

Request: Textbook exercise: given the entry CUGCUCCGUGUAGGAUAUGCAUACUCCCAUUAUGCAGAAGGACAUGAGGAUCACCCAUGUAUGUUAUUAUCAUGUGUUGCGUAC [Design 13] (Eterna round: R96, puzzle: Exclusion NG 1) , state whether its apparent KD of MS2 coat protein is greater than or equal to 50 nM.
Response: False

Request: For this sequence, is measured apparent KD of MS2 coat protein 50 nM or higher? GUCGUGCGGCUUUGCUGUGCGGGUGCAUGAGGAUCACCCAUGUAGGAUAUGGUACGCUUUGCGUGCCAGAAGGGCGUGCGUUGG [salish99_ExNG3_r04_009] (Eterna round: R96, puzzle: Exclusion NG 3)
Response: True

Request: Can CUAAAAGUGAUCACAGGAACAUGAGGAUCACCCAUGUGCCUCAAGGAUAUGCACGGCUAUCCAGGGUAGAAGGUGAGAAUGCAC [Eternabot solution 30] (Eterna round: R96, puzzle: Exclusion NG 3) be said to have apparent KD of MS2 coat protein at or above 50 nM?
Response: True

====

# System: MS2 coat protein
# test-description: apparent KD of MS2 coat protein; designed switch direction (-1 OFF switch, 1 ON switch): -1; higher = weaker reporter binding
# measurement-context: input ligand: none
The following sequences are shown together with reported apparent KD of MS2 coat protein values.
Give just the number in nM; leave the unit off.

Previously resolved entries follow.
biosequence="UGUGAGCAUGUCAGGAUAUGCAUCACAGUUAGGAUGUAGAAGGGACAUGAGGAUCACCCAUGUAGCUUCAGGUA [BmEX4 A.20] (Eterna round: R97, puzzle: Brourd's mod of Exclusion 4)" metric_name="apparent KD of MS2 coat protein" result=14.5
biosequence="UAGAAAGGUAAGGAUAUCCUUGAGAAAGAAAGAGGAGAAGGUACCACAUGAGGAUCACCCAUGUGGCUCUCAAA [jl-ex6-4.57 Nando mod] (Eterna round: R97, puzzle: Exclusion 6)" metric_name="apparent KD of MS2 coat protein" result=13.7

The record that follows has no apparent KD of MS2 coat protein shown yet.
Request: Param item = UGAUCUAGCGGAGGAUAUACAUGAGGAUCACCCAUGUAUAGUCUAUGACCGUAGUCGUGGAACGUGUAGAAGGCCGCUAGAUCU [JL ENG2 3.78] (Eterna round: R96, puzzle: Exclusion NG 2) ; retrieve measured apparent KD of MS2 coat protein.
Response: 14.4
